experiment: protein stability index of a GFP-peptide fusion (yeast GPS) (PSI 1-4); higher = more stable; sorted into four equal gates, so the index is relative within each strain
testParameters: san1∆
recordedEndpoint: protein stability index
Please state the value as a number alone, without comment.

Prompt: Consider the sequence shown here: QVNIRFLLHNSEIIDTN [SRB8] What is its recorded protein stability index?
Response: 2.79

Prompt: Tell me the measured protein stability index of DIFSNLSSDDLLGKESF [YCS4] , please.
Response: 2.95

Prompt: Recorded protein stability index for TLEDALRRIITDLNQDS [GRR1] , please?
Response: 2.1

Prompt: Could you share which protein stability index value was measured for ENTKDNLVKEKEALQNN [SMC1] ?
Response: 3.45

Prompt: Field request: protein stability index | item: TKSKNKTLIGLQGIVIW [POP4]
Response: 2.76

Prompt: Query: protein stability index; subject: HFVRDLGTIESAQAETE [DIS3]
Response: 2.85

Prompt: // protein stability index lookup, key: TNFEILNEMLNTRKNMS [DIS3]
Response: 3.06

Prompt: I am curious: what protein stability index value has been reported for QLLEKAPIPIREDIDDP [BRR2] ?
Response: 2.37

Prompt: Any idea what protein stability index was measured for LLVQKRFKYAPGTIVLY [RPS3] ?
Response: 1.72

Prompt: Please report the recorded protein stability index for STNGLGMCQLYFWHKIW [SNU114] .
Response: 2.56

Prompt: Given the entry ETLSIFTNVPLNLEQVT [YJL039C/NUP192] , report its measured protein stability index.
Response: 2.33

Prompt: May I ask what protein stability index has been recorded for KSSAFVIDIGASGCNVT [ARP7] ?
Response: 2.17

Prompt: Which value of protein stability index has been reported for PKLKRIGLVKCTQMTDE [GRR1] in the records?
Response: 2.81

Prompt: Look up protein stability index: TKISTLAVKVHGGSRYA [QCR2]
Response: 1.18

Prompt: # get_value(readout='protein stability index', item= DDRDHFGKKRLDLAGPL [RPB2] )
Response: 3.2
